test target: UniProt:Q9GZV3
Sequence (Q9GZV3 whole entry): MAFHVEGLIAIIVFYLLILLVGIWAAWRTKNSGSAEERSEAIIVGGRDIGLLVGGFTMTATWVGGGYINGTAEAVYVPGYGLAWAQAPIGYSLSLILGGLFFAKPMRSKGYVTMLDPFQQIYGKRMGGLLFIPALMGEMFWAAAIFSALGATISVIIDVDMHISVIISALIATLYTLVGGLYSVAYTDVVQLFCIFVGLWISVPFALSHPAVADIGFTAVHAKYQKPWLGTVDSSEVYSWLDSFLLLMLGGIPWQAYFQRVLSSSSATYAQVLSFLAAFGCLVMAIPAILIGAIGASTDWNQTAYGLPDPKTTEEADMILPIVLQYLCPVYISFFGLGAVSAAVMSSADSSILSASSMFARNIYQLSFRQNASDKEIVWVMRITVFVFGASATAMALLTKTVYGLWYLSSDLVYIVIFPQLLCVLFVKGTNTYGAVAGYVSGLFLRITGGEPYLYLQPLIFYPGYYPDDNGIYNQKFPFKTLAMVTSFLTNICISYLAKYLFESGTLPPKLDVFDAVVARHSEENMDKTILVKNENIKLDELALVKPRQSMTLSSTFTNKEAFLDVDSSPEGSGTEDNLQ
assay notes: human choline transporter blockers, potency – cell-based, 5-point CRC, membrane potential dye, dose response (AID 504840)
Type: functional
Active and inactive are the calls of the source.
In this section we review reported IC50 values for a set of compounds.

{"molecule smiles": "O=C(Nc1cccc(C(=O)N2CCCCC2)c1)c1ccccc1Br", "test target": "UniProt:Q9GZV3", "IC50": "16.8 µM (active)"}
{"molecule smiles": "CCn1cc(C(=O)NCCCN2CCC(C)CC2)c(=O)c2cc(S(=O)(=O)N(C)C3CCCCC3)ccc21", "test target": "UniProt:Q9GZV3", "IC50": "7.24 µM (active)"}

Item: `O=C(Nc1ccc(S(=O)(=O)NC2=NCCCCC2)cc1)c1ccc(C(F)(F)F)cc1` Test system: UniProt:Q9GZV3 Read-out: IC50 Value: ?
11.8 µM (active)

Then what about the compound `CCN(Cc1ccncc1)C(=O)c1cc(COc2ccc(F)cc2Cl)on1` ?
13.2 µM (active)

Then what about the compound `Cc1cc(-c2ccccc2)n(-c2ccc(C(=O)N3CCN(c4ncccn4)CC3)cc2)n1` ?
8.32 µM (active)

* * *

test target: Apoptotic protease-activating factor 1 (Homo sapiens)
Sequence (O14727 whole entry): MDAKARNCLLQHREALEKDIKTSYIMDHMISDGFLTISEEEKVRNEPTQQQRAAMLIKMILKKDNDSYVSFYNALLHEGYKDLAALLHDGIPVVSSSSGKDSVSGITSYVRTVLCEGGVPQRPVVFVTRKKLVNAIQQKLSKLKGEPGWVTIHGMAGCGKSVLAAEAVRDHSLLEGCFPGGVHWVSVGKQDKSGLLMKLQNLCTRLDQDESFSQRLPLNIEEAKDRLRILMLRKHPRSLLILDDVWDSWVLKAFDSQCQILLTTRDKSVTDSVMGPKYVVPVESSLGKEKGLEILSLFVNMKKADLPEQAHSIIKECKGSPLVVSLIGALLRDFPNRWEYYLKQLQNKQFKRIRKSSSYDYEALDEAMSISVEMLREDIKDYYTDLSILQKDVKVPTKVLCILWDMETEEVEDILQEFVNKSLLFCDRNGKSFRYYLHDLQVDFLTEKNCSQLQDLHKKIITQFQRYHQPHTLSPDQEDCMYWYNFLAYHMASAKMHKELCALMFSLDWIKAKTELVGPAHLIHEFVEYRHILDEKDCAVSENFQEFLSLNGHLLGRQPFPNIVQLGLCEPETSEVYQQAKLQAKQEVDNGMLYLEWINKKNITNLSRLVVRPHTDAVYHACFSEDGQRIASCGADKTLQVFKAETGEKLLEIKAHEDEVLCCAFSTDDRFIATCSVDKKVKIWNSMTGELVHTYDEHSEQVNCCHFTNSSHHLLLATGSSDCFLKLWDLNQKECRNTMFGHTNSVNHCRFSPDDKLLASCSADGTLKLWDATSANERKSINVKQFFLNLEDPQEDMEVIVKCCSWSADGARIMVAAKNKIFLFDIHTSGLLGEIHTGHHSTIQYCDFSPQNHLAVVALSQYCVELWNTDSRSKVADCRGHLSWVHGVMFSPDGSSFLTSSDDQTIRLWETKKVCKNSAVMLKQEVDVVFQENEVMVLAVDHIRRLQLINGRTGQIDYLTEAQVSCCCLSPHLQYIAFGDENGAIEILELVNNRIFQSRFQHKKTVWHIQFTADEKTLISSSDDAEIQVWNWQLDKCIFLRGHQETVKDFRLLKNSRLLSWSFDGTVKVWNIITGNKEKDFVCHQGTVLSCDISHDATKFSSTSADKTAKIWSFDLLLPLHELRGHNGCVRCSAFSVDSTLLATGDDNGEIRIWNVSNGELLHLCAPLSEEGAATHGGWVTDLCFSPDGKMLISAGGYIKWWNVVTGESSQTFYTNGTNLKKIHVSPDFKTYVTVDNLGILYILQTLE
Assay type: functional
The source made the active and inactive calls.
outcome measure: IC50

Solved entries (count: 5):
{"compound": "CN(Cc1ccc(F)cc1)C(=O)CNC(=O)c1cccs1", "test target": "Apoptotic protease-activating factor 1 (Homo sapiens)", "IC50": "> 100 µM (inactive)"}
{"compound": "Nc1c(C(=O)NCc2ccc3c(c2)OCO3)c2nc3ccccc3nc2n1CCCN1CCOCC1", "test target": "Apoptotic protease-activating factor 1 (Homo sapiens)", "IC50": "76.8 µM (active)"}
{"compound": "O=c1[nH]c(N2CCOCC2)cc2ccccc12", "test target": "Apoptotic protease-activating factor 1 (Homo sapiens)", "IC50": "8.83 µM (active)"}
{"compound": "Cc1ccc(NC2=C(N3CCCCC3)C(=O)c3ccccc3C2=O)cc1", "test target": "Apoptotic protease-activating factor 1 (Homo sapiens)", "IC50": "4.88 µM (active)"}
{"compound": "Cc1ccc2c(c1)c1ccc3c(c1n2C)C(=O)C=CC3=O", "test target": "Apoptotic protease-activating factor 1 (Homo sapiens)", "IC50": "51.8 µM (active)"}

// next entry
Can you share its IC50? I mean this compound: CCC(COC)Oc1cc(NCc2ccccc2)c2ncn(C(C)C)c2c1 (stereo unspecified)
16.7 µM (active)

* * *

test target: Corticotropin-releasing factor receptor 2/Corticotropin-releasing factor-binding protein (Homo sapiens, UniProt P24387+Q13324)
Sequence (Q13324 whole entry): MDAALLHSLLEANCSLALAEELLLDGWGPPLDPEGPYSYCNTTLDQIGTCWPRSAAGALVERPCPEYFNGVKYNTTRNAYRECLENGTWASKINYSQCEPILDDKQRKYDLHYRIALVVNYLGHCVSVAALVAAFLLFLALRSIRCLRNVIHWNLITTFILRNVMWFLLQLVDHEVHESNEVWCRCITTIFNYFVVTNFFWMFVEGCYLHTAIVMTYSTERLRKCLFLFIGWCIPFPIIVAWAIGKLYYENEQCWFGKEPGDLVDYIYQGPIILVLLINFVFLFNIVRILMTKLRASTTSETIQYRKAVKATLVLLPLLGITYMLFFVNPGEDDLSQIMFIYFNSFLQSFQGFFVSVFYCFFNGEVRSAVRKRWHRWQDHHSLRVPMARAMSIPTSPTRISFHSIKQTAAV
Sequence (P24387 whole entry): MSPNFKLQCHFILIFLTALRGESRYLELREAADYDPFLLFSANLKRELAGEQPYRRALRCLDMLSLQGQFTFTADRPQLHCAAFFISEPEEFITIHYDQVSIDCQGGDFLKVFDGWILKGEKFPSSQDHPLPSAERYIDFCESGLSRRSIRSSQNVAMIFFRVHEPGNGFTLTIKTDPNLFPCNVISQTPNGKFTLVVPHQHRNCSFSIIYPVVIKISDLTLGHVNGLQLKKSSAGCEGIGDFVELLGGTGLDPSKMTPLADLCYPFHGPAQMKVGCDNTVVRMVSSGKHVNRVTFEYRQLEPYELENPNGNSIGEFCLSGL
assay notes: activators of CRF receptor 2 with binding protein – uHTS hits, confirmation (AID 602473)
Assay type: functional
test parameters: read-out: EC50_Mean
Active and inactive are the calls of the source.
Pick one and only one: 1 = active, -1 = inactive

The examples below pair each entry with its known result.
{"molecule smiles": "O=C(c1ccc([N+](=O)[O-])cc1)N(Cc1ccc(Cl)cc1Cl)N1C(=O)CCCC1=O", "category": -1}
{"molecule smiles": "c1ccc(CCNc2nc3ccccc3n3nnnc23)cc1", "category": -1}
{"molecule smiles": "Cc1ccc(S(=O)(=O)Nc2ccc3cc([N+](=O)[O-])ccc3c2[N+](=O)[O-])cc1", "category": -1}

Returns: the outcome recorded for `CC(C)(C)/N=C/c1c(O)ccc2oc3c(c12)CCCC3` in this assay.
-1

Then what about the molecule `CCOC(=O)N1CCN(C(=O)c2ccc3nc(SCc4ccc(F)cc4)n(C)c3c2)CC1` ?
-1

Then what about the molecule `Cc1[nH]c2ccccc2c1SCc1nnc(SCc2ccccc2)n1C` ?
-1

Then what about the molecule `CCOC(=O)c1c(-c2ccc(OC)cc2)csc1NC(=O)CNCc1ccco1` ?
-1

Then what about the molecule `Cc1cc(=O)[nH]c(SCC(=O)Nc2ccc(Br)cc2)c1C#N` ?
1

Then what about the molecule `Cc1ccc(CN2CC(=O)N3[C@H]4c5cc(Cl)ccc5OC[C@@H]4[C@H](c4ccccc4)[C@]3(C)C2=O)cc1` ?
-1

Then what about the molecule `O=C(Nc1cccc2ccccc12)N1CC=CCC1` ?
-1
